- Measured Target: H-2 K^d (Mus musculus)
- Sequence (P01887 21-119): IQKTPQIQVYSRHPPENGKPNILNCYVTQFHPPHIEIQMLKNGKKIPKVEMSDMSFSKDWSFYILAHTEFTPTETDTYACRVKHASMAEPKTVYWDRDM
- Sequence (P01902 22-368): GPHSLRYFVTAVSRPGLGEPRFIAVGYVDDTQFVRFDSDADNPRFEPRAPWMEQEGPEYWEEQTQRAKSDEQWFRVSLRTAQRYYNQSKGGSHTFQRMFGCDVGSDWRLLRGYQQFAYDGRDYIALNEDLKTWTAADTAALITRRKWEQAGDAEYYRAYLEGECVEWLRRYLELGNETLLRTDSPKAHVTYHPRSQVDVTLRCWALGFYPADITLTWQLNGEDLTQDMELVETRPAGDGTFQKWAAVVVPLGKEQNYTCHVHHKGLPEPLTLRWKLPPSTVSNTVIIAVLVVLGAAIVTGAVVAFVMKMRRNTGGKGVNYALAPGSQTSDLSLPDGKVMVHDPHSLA
- Assay type: binding
Records here are stratified by Normalized average relative binding affinity(ARB); strata: low-valued: < 0.1; mid-valued: ≥ 0.1 and < 0.4; high-valued: ≥ 0.4

Here are 3 sequences together with their reported answers.
{"Residue String": "XXXXPXXXX [3064.0093]", "Measured Target": "H-2 K^d (Mus musculus)", "Category Label": "low-valued"}
{"Residue String": "XXXXXXXKX [3064.0149]", "Measured Target": "H-2 K^d (Mus musculus)", "Category Label": "mid-valued"}
{"Residue String": "XXXXXXXPX [3064.0153]", "Measured Target": "H-2 K^d (Mus musculus)", "Category Label": "high-valued"}

Next:
Which class does XXXXXIXXX [3064.0108] fall in?
mid-valued
